experiment: Cytotoxicity against human HepG2 cells assessed as cell survival at 10 uM after 24 hrs by MTT assay; format: cell-based; settings: read-out: Survival
Property: viability at 24 h, 10 µM (%)
Numbers only, in %.

// viability at 24 h, 10 µM lookup, molecule = CC[C@H](CC[C@@H](C)[C@H]1CC[C@H]2[C@@H]3CC=C4C[C@@H](O)CC[C@]4(C)[C@H]3CC[C@]12C)C(C)C , result: 99.7

// viability at 24 h, 10 µM lookup, molecule = CC[C@H](CC[C@@H](C)[C@H]1CC[C@H]2[C@@H]3CC=C4C[C@@H](O[C@@H]5O[C@H](CO)[C@@H](O)[C@H](O)[C@H]5O)CC[C@]4(C)[C@H]3CC[C@]12C)C(C)C [SITOGLUSIDE] , result: 92.8

// viability at 24 h, 10 µM lookup, molecule = CC1(C)[C@@H](O)CC[C@]2(C)[C@H]3C=CC4=C(O)C(=O)C(=O)[C@@]4(C)[C@]3(C)CC[C@@H]12 , result: 99.8

// viability at 24 h, 10 µM lookup, molecule = CC1(C)CC[C@]2(C(=O)O)CC[C@]3(C)C(=CC[C@@H]4[C@@]5(C)CC[C@H](O)C(C)(C)[C@@H]5CC[C@]43C)[C@@H]2C1 , result: 99.9

// viability at 24 h, 10 µM lookup, molecule = C=C1CC[C@]2(C(=O)O)CC[C@]3(C)C(=CC[C@@H]4[C@@]5(C)CC[C@H](O)[C@@](C)(CO)[C@@H]5CC[C@]43C)[C@@H]2C1 , result: 96.7

Dear colleague, could you please provide viability at 24 h, 10 µM for the molecules listed below?
1. C[C@H]1[C@H](C)CC[C@]2(C(=O)O)CC[C@]3(C)C(=CC[C@@H]4[C@@]5(C)CC[C@H](O)C(C)(C)[C@@H]5CC[C@]43C)[C@H]12
2. C=C(C)[C@@H]1CC[C@]2(C(=O)O)CC[C@]3(C)[C@H](CC[C@@H]4[C@@]5(C)CC[C@H](O)C(C)(C)[C@@H]5CC[C@]43C)[C@@H]12

output:
1. 99.2
2. 91.3

----------
assay: Cytotoxicity against human HepG2 cells assessed as cell survival at 100 uM after 24 hrs by MTT assay; format: cell-based; details: read-out: Survival
For each record, write down the corresponding viability at 24 h, 100 µM.
Your answer should be a number followed by the unit of measure.

// viability at 24 h, 100 µM lookup, molecule = CC1(C)CC[C@]2(C(=O)O)CC[C@]3(C)C(=CC[C@@H]4[C@@]5(C)CC[C@H](O)C(C)(C)[C@@H]5CC[C@]43C)[C@@H]2C1 , result: 54.1%

// viability at 24 h, 100 µM lookup, molecule = CC1(C)[C@@H](O)CC[C@]2(C)[C@H]3C=CC4=C(O)C(=O)C(=O)[C@@]4(C)[C@]3(C)CC[C@@H]12 , result: 41.6%

// viability at 24 h, 100 µM lookup, molecule = CC[C@H](CC[C@@H](C)[C@H]1CC[C@H]2[C@@H]3CC=C4C[C@@H](O)CC[C@]4(C)[C@H]3CC[C@]12C)C(C)C , result: 57.8%

// viability at 24 h, 100 µM lookup, molecule = C=C1CC[C@]2(C(=O)O)CC[C@]3(C)C(=CC[C@@H]4[C@@]5(C)CC[C@H](O)[C@@](C)(CO)[C@@H]5CC[C@]43C)[C@@H]2C1 , result: 65%

// viability at 24 h, 100 µM lookup, molecule = C=C(C)[C@@H]1CC[C@]2(C(=O)O)CC[C@]3(C)[C@H](CC[C@@H]4[C@@]5(C)CC[C@H](O)C(C)(C)[C@@H]5CC[C@]43C)[C@@H]12 , result: 52.9%

Dear colleague, could you please provide viability at 24 h, 100 µM for the molecules listed below?
1. C[C@H]1[C@H](C)CC[C@]2(C(=O)O)CC[C@]3(C)C(=CC[C@@H]4[C@@]5(C)CC[C@H](O)C(C)(C)[C@@H]5CC[C@]43C)[C@H]12
2. CC[C@H](CC[C@@H](C)[C@H]1CC[C@H]2[C@@H]3CC=C4C[C@@H](O[C@@H]5O[C@H](CO)[C@@H](O)[C@H](O)[C@H]5O)CC[C@]4(C)[C@H]3CC[C@]12C)C(C)C [SITOGLUSIDE]

output:
1: 55.8%; 2: 66.3%

----------
For each record, write down the corresponding viability at 24 h, 20 µM.
assay: Cytotoxicity against human HepG2 cells assessed as cell survival at 20 uM after 24 hrs by MTT assay; format: cell-based; settings: read-out: Survival
Give bare numbers, in %.

Recorded viability at 24 h, 20 µM, per entry:
// viability at 24 h, 20 µM lookup, compound = CC1(C)[C@@H](O)CC[C@]2(C)[C@H]3C=CC4=C(O)C(=O)C(=O)[C@@]4(C)[C@]3(C)CC[C@@H]12 [PALBINONE] , result: 81.5

// viability at 24 h, 20 µM lookup, compound = CC[C@H](CC[C@@H](C)[C@H]1CC[C@H]2[C@@H]3CC=C4C[C@@H](O[C@@H]5O[C@H](CO)[C@@H](O)[C@H](O)[C@H]5O)CC[C@]4(C)[C@H]3CC[C@]12C)C(C)C [SITOGLUSIDE] , result: 82.7

// viability at 24 h, 20 µM lookup, compound = CC1(C)CC[C@]2(C(=O)O)CC[C@]3(C)C(=CC[C@@H]4[C@@]5(C)CC[C@H](O)C(C)(C)[C@@H]5CC[C@]43C)[C@@H]2C1 [OLEANOLIC_ACID] , result: 82.4

Dear colleague, could you please provide viability at 24 h, 20 µM for the compounds listed below?
1. C[C@H]1[C@H](C)CC[C@]2(C(=O)O)CC[C@]3(C)C(=CC[C@@H]4[C@@]5(C)CC[C@H](O)C(C)(C)[C@@H]5CC[C@]43C)[C@H]12 [URSOLIC ACID]
2. C=C1CC[C@]2(C(=O)O)CC[C@]3(C)C(=CC[C@@H]4[C@@]5(C)CC[C@H](O)[C@@](C)(CO)[C@@H]5CC[C@]43C)[C@@H]2C1
3. C=C(C)[C@@H]1CC[C@]2(C(=O)O)CC[C@]3(C)[C@H](CC[C@@H]4[C@@]5(C)CC[C@H](O)C(C)(C)[C@@H]5CC[C@]43C)[C@@H]12 [BETULINIC ACID]
4. CC[C@H](CC[C@@H](C)[C@H]1CC[C@H]2[C@@H]3CC=C4C[C@@H](O)CC[C@]4(C)[C@H]3CC[C@]12C)C(C)C [BETA-SITOSTEROL]

output:
1: 82; 2: 84.6; 3: 81.2; 4: 82.3

----------
assay: Cytotoxicity against human HepG2 cells assessed as cell survival at 5 uM after 24 hrs by MTT assay; type: cell-based; conditions: read-out: Survival
Property: viability at 24 h, 5 µM (%)
Give bare numbers, in %.

Recorded viability at 24 h, 5 µM, per entry:
// viability at 24 h, 5 µM lookup, molecule = C=C(C)[C@@H]1CC[C@]2(C(=O)O)CC[C@]3(C)[C@H](CC[C@@H]4[C@@]5(C)CC[C@H](O)C(C)(C)[C@@H]5CC[C@]43C)[C@@H]12 [BETULINIC ACID] , result: 99.6

// viability at 24 h, 5 µM lookup, molecule = CC[C@H](CC[C@@H](C)[C@H]1CC[C@H]2[C@@H]3CC=C4C[C@@H](O[C@@H]5O[C@H](CO)[C@@H](O)[C@H](O)[C@H]5O)CC[C@]4(C)[C@H]3CC[C@]12C)C(C)C [SITOGLUSIDE] , result: 99.9

Dear colleague, could you please provide viability at 24 h, 5 µM for the molecules listed below?
1. CC1(C)[C@@H](O)CC[C@]2(C)[C@H]3C=CC4=C(O)C(=O)C(=O)[C@@]4(C)[C@]3(C)CC[C@@H]12 [PALBINONE]
2. CC[C@H](CC[C@@H](C)[C@H]1CC[C@H]2[C@@H]3CC=C4C[C@@H](O)CC[C@]4(C)[C@H]3CC[C@]12C)C(C)C [BETA-SITOSTEROL]
3. CC1(C)CC[C@]2(C(=O)O)CC[C@]3(C)C(=CC[C@@H]4[C@@]5(C)CC[C@H](O)C(C)(C)[C@@H]5CC[C@]43C)[C@@H]2C1 [OLEANOLIC_ACID]
4. C=C1CC[C@]2(C(=O)O)CC[C@]3(C)C(=CC[C@@H]4[C@@]5(C)CC[C@H](O)[C@@](C)(CO)[C@@H]5CC[C@]43C)[C@@H]2C1
5. C[C@H]1[C@H](C)CC[C@]2(C(=O)O)CC[C@]3(C)C(=CC[C@@H]4[C@@]5(C)CC[C@H](O)C(C)(C)[C@@H]5CC[C@]43C)[C@H]12 [URSOLIC ACID]

output:
[98.7, 98.8, 97.8, 100, 97.1]

From: ChEMBL document CHEMBL1155207
